Tested on: HBsAg
Procedure summary: HBsAg inhibition in adenovirus-HBsAg-transduced HepG2-NTCP WT and KO clones
Format: cell-based, hepatitis B virus
Experimental context: Hepatitis B virus, read-out: Adeno infection EC50, P7_KO (T2-8), HBsAg
Measured quantity: EC50

query: Name the recorded EC50 of the item "COCCCOc1cc2c(nc1OC)-c1cc(=O)c(C(=O)O)cn1[C@H](C(C)C)C2" in your answer.
result: 10 nM

====

Procedure summary: Cytotoxicity
Assay type: cell-based
Experimental context: HeLa, human cervical cancer cells
Measured quantity: CC50

query: Please list CC50 recorded for the molecule COCCCOc1cc2c(nc1OC)-c1cc(=O)c(C(=O)O)cn1[C@H](C(C)C)C2 [AB-452]
result: > 30 µM

====

System: HBsAg
Procedure summary: HBsAg inhibition in adenovirus-HBsAg-transduced HepG2-NTCP WT and KO clones
Format: cell-based, hepatitis B virus
Experimental context: P5_KO (T3-15), HBsAg; read-out: Adeno infection EC50
Measured quantity: pEC50
Numbers only, as −log10 of the molar value.

query: Fill in reported pEC50 for this entry: COCCCOc1cc2c(cc1OC)-c1cc(=O)c(C(=O)O)cn1[C@H](C(C)C)C2 [RG7834, reference compound]
result: 7.07

====

System: HBV
Procedure summary: Antiviral assay in HBV-infected primary human hepatocytes (PHH)
Type: cell-based
Experimental context: Hepatitis B virus, Hepatocyte, read-out: HBeAg EC50
Measured quantity: pEC50
One number for each entry, as −log10 of the molar value.

query: Fill in reported pEC50 for this entry: "COCCCOc1cc2c(nc1OC)-c1cc(=O)c(C(=O)O)cn1[C@H](C(C)C)C2"
result: 8.43

====

Tested on: HCV
Procedure summary: Antiviral selectivity panel, luciferase in Huh-7 cells
Format: cell-based
Experimental context: Hepatitis C virus; Huh-7, Luciferase
Measured quantity: EC50

query: Fill in reported EC50 for this entry: COCCCOc1cc2c(nc1OC)-c1cc(=O)c(C(=O)O)cn1[C@H](C(C)C)C2 [AB-452]
result: > 30 µM
